Record: IC50 reported on Akt1 (Homo sapiens, UniProt P31749).
Sequence (P31749 whole entry): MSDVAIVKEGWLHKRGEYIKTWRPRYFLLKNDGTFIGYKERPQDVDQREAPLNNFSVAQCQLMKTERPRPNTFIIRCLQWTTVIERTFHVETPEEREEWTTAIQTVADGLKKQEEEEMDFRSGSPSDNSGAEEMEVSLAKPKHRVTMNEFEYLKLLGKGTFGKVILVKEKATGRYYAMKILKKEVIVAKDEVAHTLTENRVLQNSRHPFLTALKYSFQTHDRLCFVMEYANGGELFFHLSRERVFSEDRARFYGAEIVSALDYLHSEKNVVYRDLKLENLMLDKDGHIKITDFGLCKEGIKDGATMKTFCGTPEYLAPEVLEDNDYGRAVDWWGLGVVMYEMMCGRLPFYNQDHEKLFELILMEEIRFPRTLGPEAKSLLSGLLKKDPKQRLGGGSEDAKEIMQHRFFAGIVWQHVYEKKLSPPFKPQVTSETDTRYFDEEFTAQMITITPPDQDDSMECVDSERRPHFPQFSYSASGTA
Answers are plain numbers, in µM.

Illustrative cases are given below, each with its answer.
Cn1nccc1-c1ccc(C(=O)N[C@@H]2CNCC[C@H]2c2cccc(F)c2)s1; 0.007
Cn1ncc(Cl)c1-c1ccc(C(=O)N[C@@H]2CNCC[C@H]2c2cccc(F)c2)cc1Cl; 0.014
Cn1ncc(Cl)c1-c1cc(C(=O)N[C@@H]2CNC(CCOC(=O)C(F)(F)F)C[C@H]2c2ccc(F)c(F)c2)oc1Cl (stereo partly shown); 0.002
Cc1nc(C(=O)N[C@H]2CNCC[C@@H]2C2CCCNC2)ccc1-c1c(Br)cnn1C (mixture of isomers); 0.142
Cn1nccc1-c1coc(C(=O)N[C@H]2CNCC[C@@H]2c2ccccc2)c1 (racemic); 0.072
Cn1ncc(Br)c1-c1csc(C(=O)N[C@H]2CNCC[C@@H]2c2ccc(F)c(F)c2)c1 (racemic); 0.409
COCCC1C[C@@H](c2ccc(Cl)c(Cl)c2)[C@H](NC(=O)c2cc(-c3c(Cl)cnn3C)c(Cl)o2)CN1 (stereo partly shown); 0.001
C[C@H]1CNC[C@@H](NC(=O)c2cc(-c3c(Cl)cnn3C)c(Cl)o2)[C@@H]1c1cccc(F)c1; 0.002

Provide IC50 values for the following items, in order.
1. Cn1ncc(Br)c1-c1csc(C(=O)N[C@@H]2CNCC[C@H]2c2ccc(F)c(F)c2)c1
2. Cn1ncc(Cl)c1-c1cc(C(=O)N[C@H]2CNCC[C@@H]2c2ccc(C(F)(F)F)cc2)oc1Cl (racemic) [Compound 30]
3. Cn1ncc(Cl)c1-c1cc(C(=O)N[C@@H]2CNC(CCO)C[C@H]2c2ccc(Cl)c(Cl)c2)oc1Cl (stereo partly shown)

// result
[0.092, 0.092, 0.003]

# batch size: 4; output IC50 per entry
1. Cn1ncc(Cl)c1-c1ccc(C(=O)N[C@@H]2CNCC[C@H]2c2ccc(Cl)cc2)c(C(F)(F)F)c1
2. Cn1ncc(Cl)c1-c1cc(C(=O)N[C@@H]2CNC(CCN3CCC(O)CC3)C[C@H]2c2ccc(Cl)c(Cl)c2)oc1Cl (stereo partly shown)
3. Cn1ncc(Br)c1-c1coc(C(=O)N[C@H]2CNCC[C@@H]2c2ccccc2)c1 (racemic)
4. Cn1ncc(Cl)c1-c1cc(C(=O)N[C@@H]2CNC(CCN3CCCC3)C[C@H]2c2ccc(Cl)c(Cl)c2)oc1Cl (stereo partly shown)

// result
[0.001, 0.014, 0.108, 0.011]

Provide IC50 for all items below, preserving their order.
1. Cn1ncc(Cl)c1-c1csc(C(=O)N[C@H]2CNCC[C@@H]2c2ccc(Cl)cc2)c1 (racemic)
2. Cn1ncc(Cl)c1-c1ccc(C(=O)N[C@@H]2CNCC[C@H]2c2ccc(F)c(F)c2)cc1F
3. Cn1ncc(Cl)c1-c1ccc(C(=O)N[C@@H]2CNCC[C@H]2c2c[nH]c3ccccc23)cc1Cl
4. Cn1ncc(Cl)c1-c1cc(C(=O)N[C@H]2CNCC[C@@H]2c2ccc(Cl)cc2)oc1Cl (racemic)

// result
1: 0.12; 2: 0.016; 3: 0.011; 4: 0.099

----------
Hi there, I'd appreciate the recorded IC50 for every entry that follows.
System: Human ovarian cancer cell strain OVCAR-8
Assay: MTT assay, inhibition of tumor cell growth in vitro, 72 h
Type: cell-based
Conditions: Homo sapiens, OVCAR-8, MTT, read-out: Antitumor proliferative activities of tumor cell (IC50, μM) OVCAR-8
Protocol: First, inhibitory activity on tumor proliferation in vitro is determined and the structure activity relationship is preliminarily studied, in which different solid tumor cell strains are selected for determining the antitumor activities in vitro of the synthesized compounds. Cell strains: Human ovarian cancer cell strain (OVCAR8), colon adenocarcinoma cell strain (HCT-116) Medium: OVCAR8: RPMI 1640+Fetal Bovine Serum […]
Give bare numbers, in µM.

Illustrative cases are given below, each with its answer.
Cn1ncc(Cl)c1-c1ccc(C(=O)N[C@@H]2CNCC[C@H]2c2ccc(F)c(F)c2)cc1Cl; 0.76
Cn1ncc(Cl)c1-c1cc(C(=O)N[C@@H]2CNC(CCn3cncn3)C[C@H]2c2ccc(Cl)c(Cl)c2)oc1Cl (stereo partly shown); 0.43
Cn1ncc(Cl)c1-c1coc(C(=O)N[C@H]2CNCC[C@@H]2c2ccc(F)c(F)c2)c1 (racemic); 21.4
CCc1sc(C(=O)N[C@H]2CNCC[C@@H]2c2cnc3ccccc3c2)cc1-c1c(C(C)C)cnn1C (racemic); 0.94
Cn1ncc(Cl)c1-c1cc(C(=O)N[C@@H]2CNC(CC(=O)O)C[C@H]2c2ccc(Cl)c(Cl)c2)oc1Cl (stereo partly shown); 3.68
Cn1ncc(Br)c1-c1ccc(C(=O)N[C@@H]2CNCC[C@H]2c2cc(F)c(F)c(F)c2)cc1; 3.57
CNC(=O)CC1C[C@@H](c2ccc(Cl)c(Cl)c2)[C@H](NC(=O)c2cc(-c3c(Cl)cnn3C)c(Cl)o2)CN1 (stereo partly shown); 4.02
Cn1nccc1-c1coc(C(=O)N[C@H]2CNCC[C@@H]2c2ccccc2)n1 (racemic); 9.83

Record IC50 for all entries; do not skip any.
1. Cn1ncc(Cl)c1-c1ccc(C(=O)N[C@@H]2CNCC[C@H]2c2ccc(Cl)cc2)c(C(F)(F)F)c1
2. Cc1cccc([C@H]2CCNC[C@@H]2NC(=O)c2cc(C)c(-c3c(Br)cnn3C)cc2C)c1 (racemic)
3. CNC(=O)CC1C[C@@H](c2ccc(F)c(F)c2)[C@H](NC(=O)c2cc(-c3c(Cl)cnn3C)c(Cl)s2)CN1 (stereo partly shown)
4. Cn1ncc(Cl)c1-c1ccc(C(=O)N[C@@H]2CNCC[C@H]2c2ccc(F)c(F)c2)c(-c2csc(Cl)c2)c1

// result
[0.94, 12.9, 1.71, 1.83]

Could you tell me IC50 for each of these compounds? They are listed below.
1. CC(C)c1cnn(C)c1-c1nc(C(=O)N[C@H]2CNCC[C@@H]2C2CCC(F)C2)ncc1Cl (stereo partly shown)
2. CCc1sc(C(=O)N[C@H]2CNCC[C@@H]2c2cnc3c(c2)CCC(C)C3)cc1-c1c(C(C)C)cnn1C (stereo partly shown)
3. Cn1ncc(Cl)c1-c1csc(C(=O)N[C@H]2CNCC[C@@H]2c2ccc(F)c(F)c2)c1 (racemic)
4. Cn1ncc(Cl)c1-c1cc(C(=O)N[C@@H]2CNC(CC(O)CO)C[C@H]2c2ccc(F)c(F)c2)oc1Cl (stereo partly shown)
5. Cn1ncc(Cl)c1-c1cc(C(=O)N[C@@H]2CNC(CCOC(=O)C(F)(F)F)C[C@H]2c2ccc(F)c(F)c2)oc1Cl (stereo partly shown)

// result
[0.68, 3.68, 3.38, 0.92, 1.33]

Please give IC50, item by item, for the list that follows.
1. Cc1cnn(C)c1-c1cnc(C(=O)N[C@H]2CNCC[C@@H]2c2ccc[nH]2)nc1C (racemic)
2. Cn1ncc(Cl)c1-c1ccc(C(=O)N[C@@H]2CNC(CCNS(C)(=O)=O)C[C@H]2c2cccc(F)c2)cc1Cl (stereo partly shown)

// result
1. 6.01
2. 1.11
